Please respond with reported Percentage cytotoxicity for every item in the list.
# Test system: PTC (colon)
# procedure_text: MTT cytotoxicity assay, 48 hours (Example 14)
# Format: cell-based, human
# condition_notes: 100 pM
Non-standard residues stand in square brackets, D forms with d. Residues, ends and D or L forms follow the SMILES beside them. *: point of attachment. Octanoyl = CCCCCCCC(=O)*; Ac5c = NC1(C(=O)O)CCCC1; Deg = CCC(N)(CC)C(=O)O; Aib = CC(C)(N)C(=O)O
Lab note: write values as number then unit, every time.

input: State the recorded Percentage cytotoxicity for this entry: CCC(CC)(NC(=O)[C@H](Cc1c[nH]c2ccccc12)NC(=O)[C@H](CCC(N)=O)NC(=O)[C@H](N)Cc1ccccc1)C(=O)N[C@H](C(=O)NCC(=O)N[C@@H](Cc1c[nH]cn1)C(=O)N[C@@H](CC(C)C)C(N)=O)C(C)C [SEQ ID: 9, D-Phe-Gln-Trp-Deg-Val-Gly-His-Leu-NH2] (H-[dF]QW[Deg]VGHL-NH2; N-terminus assumed)
output: 24.5 ± 3.9%

input: Next: CCCCCCCC(=O)N[C@H](Cc1ccccc1)C(=O)N[C@@H](CCC(N)=O)C(=O)N[C@@H](Cc1c[nH]c2ccccc12)C(=O)N[C@@H](C)C(=O)N[C@H](C(=O)NC(C)(C)C(=O)N[C@@H](Cc1c[nH]cn1)C(=O)N[C@@H](CC(C)C)C(N)=O)C(C)C [SEQ ID: 12] (Octanoyl-[dF]QWAV[Aib]HL-NH2)
output: 18.6 ± 2.4%

input: What would you report for CC(C)C[C@H](NC(=O)[C@H](Cc1c[nH]cn1)NC(=O)C1(NC(=O)[C@@H](NC(=O)[C@H](C)NC(=O)[C@H](Cc2c[nH]c3ccccc23)NC(=O)[C@H](CCC(N)=O)NC(=O)[C@H](N)Cc2ccccc2)C(C)C)CCCC1)C(N)=O [SEQ ID: 10, D-Phe-Gln-Trp-Ala-Val-Ac5c-His-Leu-NH2] (H-[dF]QWAV[Ac5c]HL-NH2; N-terminus assumed) ?
output: 21.6 ± 3.1%
